All values here come from patent US20150272939A1.

PROTOCOL: AlphaScreen counterscreen against bio-H3K4me2 peptide in the absence of enzyme (artifact signal)
SETTINGS: counterscreen, bio-H3K4me2 peptide, no enzyme
Structures can show the parent of a compound that is named as a salt.
Below is a list of entries, each paired with its recorded Artifact signal: effect of the compound when it is incubated with bio-H3K4me2 peptide value.

These recorded examples may help you get a feel for the data.
# COMPOUND, RESULT
measured = [
    ("O=C([O-])c1ccccc1-c1c2cc(Br)c(=O)cc-2oc2[c]([Hg][OH])c([O-])c(Br)cc12 [YU034068, MERBROMIN, reference compound]", "−1.81"),
    ("CC(=O)Nc1ccc(N2CCC(C(N)=O)(N3CCCCC3)CC2)c(C(=O)O)c1", 8.81),
    ("O=C(Nc1cnc(N2CCN(c3ccccc3Cl)CC2)c(C(=O)O)c1)c1ccc(F)cc1", 0.47),
]

Would you mind telling me what Artifact signal: effect of the compound when it is incubated with bio-H3K4me2 peptide value was observed for CCC(=O)O[C@]1(C(=O)CCl)[C@@H](C)C[C@H]2[C@@H]3CCC4=CC(=O)C=C[C@]4(C)[C@@]3(F)[C@@H](O)C[C@@]21C [YU034506, CLOBETASOL PROPIONATE, reference compound] ?
−1.34

Would you mind telling me what Artifact signal: effect of the compound when it is incubated with bio-H3K4me2 peptide value was observed for CCCc1ccc(OC(=O)c2cc3ccccc3oc2=O)cc1 ?
−4.49

Would you mind telling me what Artifact signal: effect of the compound when it is incubated with bio-H3K4me2 peptide value was observed for CCC(=O)Nc1ccc(N(C)CCCc2c(C)nn(C)c2C)c(C(=O)O)c1 ?
20.21

Would you mind telling me what Artifact signal: effect of the compound when it is incubated with bio-H3K4me2 peptide value was observed for C=C1c2cccc(O)c2C(=O)C2=C(O)[C@]3(O)C(=O)C(C(N)=O)=C(O)[C@@H](N(C)C)[C@@H]3[C@@H](O)[C@H]12 [YU034167, METHACYCLINE HYDROCHLORIDE, reference compound] ?
56.96

Would you mind telling me what Artifact signal: effect of the compound when it is incubated with bio-H3K4me2 peptide value was observed for O=C(OC[C@H]1O[C@@H](OC(=O)c2cc(O)c(O)c(OC(=O)c3cc(O)c(O)c(O)c3)c2)[C@H](OC(=O)c2cc(O)c(O)c(OC(=O)c3cc(O)c(O)c(O)c3)c2)[C@@H](OC(=O)c2cc(O)c(O)c(OC(=O)c3cc(O)c(O)c(O)c3)c2)[C@@H]1OC(=O)c1cc(O)c(O)c(OC(=O)c2cc(O)c(O)c(O)c2)c1)c1cc(O)c(O)c(OC(=O)c2cc(O)c(O)c(O)c2)c1 (stereo in doubt) [YU034398, TANNIC ACID, reference compound] ?
99.54

Would you mind telling me what Artifact signal: effect of the compound when it is incubated with bio-H3K4me2 peptide value was observed for Nc1c([N+](=O)[O-])cc(F)c(N2CCOCC2)c1Br ?
−3.09

Would you mind telling me what Artifact signal: effect of the compound when it is incubated with bio-H3K4me2 peptide value was observed for O=C(O)c1cc(O)c2c(c1)[C@@H]([C@H]1c3cc(C(=O)O)cc(O)c3C(=O)c3c(O[C@H]4O[C@H](CO)[C@@H](O)[C@H](O)[C@H]4O)cccc31)c1cccc(O[C@H]3O[C@H](CO)[C@@H](O)[C@H](O)[C@H]3O)c1C2=O (stereo in doubt) [YU155201, SENNOSIDE A, reference compound] ?
68.65

---

Below is a list of entries, each paired with its recorded Artifact signal: effect of the compound when it is incubated with bio-H3K4me2 peptide value.
PROTOCOL: AlphaScreen counterscreen against bio-H3K4me2 peptide in the absence of enzyme (artifact signal)
SETTINGS: counterscreen, bio-H3K4me2 peptide, no enzyme
No unit in the answer, please; the number alone is enough.

# MOLECULE, MEASURED NUMBER
records = [
    ("CN[C@@H]1[C@H](O[C@H]2O[C@H](CO)[C@@H](N)[C@H](O)[C@H]2O)O[C@H]2C[C@@H](N)[C@H](O[C@@H]3[C@H](O)[C@@H](O)[C@H](N)C[C@@H]3N)O[C@@H]2[C@@H]1O (stereo in doubt) [YU155086, APRAMYCIN, reference compound]", "−4.67"),
]

Would you mind telling me what Artifact signal: effect of the compound when it is incubated with bio-H3K4me2 peptide value was observed for Cc1cc(-c2ccc(NC(=O)CCC(=O)O)c(C)c2)ccc1NC(=O)CCC(=O)O ?
3.17

Would you mind telling me what Artifact signal: effect of the compound when it is incubated with bio-H3K4me2 peptide value was observed for CC(=O)[C@]1(O)Cc2c(O)c3c(c(O)c2[C@@H](O[C@H]2C[C@H](N)[C@H](O)[C@H](C)O2)C1)C(=O)c1ccccc1C3=O.Cl (stereo in doubt) [YU040321, IDARUBICIN HCl, reference compound] ?
−9.53

---

PROTOCOL: AlphaScreen counterscreen against bio-H3K4me2 peptide in the absence of enzyme (artifact signal)
SETTINGS: counterscreen, bio-H3K4me2 peptide, no enzyme
Consider the cut-off 0.8. If the recorded Artifact signal: effect of the compound when it is incubated with bio-H3K4me2 peptide is strictly smaller, the label is Condition met; if not, the label is Condition not met.

# MOLECULE, ASSIGNED CLASS
rows = [
    ("CC(=O)Nc1ccc(N(C)CCCc2c(C)nn(C)c2C)c(C(=O)O)c1", "Condition not met"),
    ("Cc1cccc(-n2c(=O)c(O)nc3cc([N+](=O)[O-])ccc32)c1", "Condition met"),
    ("O=C(O)CSc1nc2cc(F)c(N3CCOCC3)cc2[nH]1", "Condition met"),
    ("CSc1nc2cc(F)c(F)cc2n1C", "Condition met"),
]

In the record for CCCCCCCCCCCCCCCC[N+](C)(C)C [YU034377, CETRIMONIUM BROMIDE, reference compound] , is Artifact signal: effect of the compound when it is incubated with bio-H3K4me2 peptide less than 0.8?
Condition met

In the record for Cn1c(SCC=Cc2ccccc2)nnc1-c1cnccn1 (single isomer, unassigned) , is Artifact signal: effect of the compound when it is incubated with bio-H3K4me2 peptide less than 0.8?
Condition met

In the record for COC(=O)Nc1ccc(S(=O)(=O)N2CCCCCC2)cc1 , is Artifact signal: effect of the compound when it is incubated with bio-H3K4me2 peptide less than 0.8?
Condition met

In the record for OC1CCN(C(=S)NC2CC2)CC1 , is Artifact signal: effect of the compound when it is incubated with bio-H3K4me2 peptide less than 0.8?
Condition met

---

PROTOCOL: AlphaScreen counterscreen against bio-H3K4me2 peptide in the absence of enzyme (artifact signal)
SETTINGS: effect of the compound when incubated with bio-H3K4me2 peptide (counterscreen, no enzyme)
RECORDED METRIC: Artifact Signal (percent) (%)
Numbers only here, please. The scale is %.

These recorded examples may help you get a feel for the data.
# COMPOUND, MEASURED NUMBER
rows = [
    ("C=CCn1c(S)nnc1CNC(=O)c1cccc(C)c1 [YU149014]", "−1.43"),
    ("Cc1cc(OCc2nc3ccccc3s2)ccc1N [YU147615]", 0.54),
    ("Fc1cccc(Cl)c1CNn1cnnc1S [YU146768]", "−0.52"),
]

Kindly consider the entry below.
Would you mind telling me what Artifact Signal (percent) value was observed for C=CCO[C@H]1[C@H](O)[C@H](OCC=C)[C@H](O)[C@@H](OCC=C)[C@@H]1O [YU035165] ?
2.11

---

PROTOCOL: AlphaScreen counterscreen against bio-H3K4me2 peptide in the absence of enzyme (artifact signal);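 note: counterscreen run without enzyme against bio-H3K4me2 peptide to remove false positive hits from the JARID1 demethylase AlphaScreen screen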
SETTINGS: effect of the compound when incubated with bio-H3K4me2 peptide (counterscreen, no enzyme)
Below is a list of entries, each paired with its recorded Artifact Signal (percent) value.
Numbers only here, please. The scale is %.

These recorded examples may help you get a feel for the data.
# MOLECULE, Artifact Signal (percent) [%]
data = [
    ("C=CCN(CC=C)C(=S)Nc1sc(C)c(C)c1C(=O)OC", 6.76),
    ("O=c1c(O[C@@H]2O[C@H](CO)[C@H](O)[C@H](O)[C@H]2O)c(-c2ccc(O)c(O)c2)oc2cc(O)cc(O)c12 [YU221013, HYPEROSIDE, reference compound]", 9.46),
    ("Cc1ccc(C(C#N)=Cc2ccc(N3CCOCC3)o2)cc1 (single isomer, unassigned)", 2.50),
    ("O=C(Nc1ccc(N2CCC(c3ccccc3)C2)c(C(=O)O)c1)c1cccc(Cl)c1 (centres unmarked)", 26.96),
    ("C=C[C@@H](C1=CC(=O)C(OC)=C(OC)C1=O)c1ccccc1 [YU155075, 3,4-DIMETHOXY- DALBERGIONE, reference compound]", 11.14),
    ("O=C(NC1=NC(=O)C(F)(C(F)(F)F)S1)NC1CCCCC1 (centres unmarked)", 1.95),
]

Would you mind telling me what Artifact Signal (percent) value was observed for Cc1ccc(C(=O)Nc2cnc(N3CCN(c4ccccc4Cl)CC3)c(C(=O)O)c2)cc1 ?
−0.08

Would you mind telling me what Artifact Signal (percent) value was observed for CCC1=C[C@H]2CN(C1)Cc1c([nH]c3ccccc13)[C@@](C(=O)OC)(c1cc3c(cc1OC)N(C)[C@H]1[C@@](O)(C(=O)OC)[C@H](OC(C)=O)[C@]4(CC)C=CC[N@]5CC[C@]31[C@@H]54)C2.O=C(O)C(O)C(O)C(=O)O [YU221030, V[…], reference compound] ?
18.13

Would you mind telling me what Artifact Signal (percent) value was observed for C=CCNCCCCOc1cccc(OCC)c1 ?
5.94

Would you mind telling me what Artifact Signal (percent) value was observed for C[C@](N)(Cc1ccc(O)c(O)c1)C(=O)O [YU033903, METHYLDOPA, reference compound] ?
−0.54
